MEASURED_TARGET: human β2-adrenergic receptor (Homo sapiens, UniProt P07550)
Sequence (P07550 whole entry): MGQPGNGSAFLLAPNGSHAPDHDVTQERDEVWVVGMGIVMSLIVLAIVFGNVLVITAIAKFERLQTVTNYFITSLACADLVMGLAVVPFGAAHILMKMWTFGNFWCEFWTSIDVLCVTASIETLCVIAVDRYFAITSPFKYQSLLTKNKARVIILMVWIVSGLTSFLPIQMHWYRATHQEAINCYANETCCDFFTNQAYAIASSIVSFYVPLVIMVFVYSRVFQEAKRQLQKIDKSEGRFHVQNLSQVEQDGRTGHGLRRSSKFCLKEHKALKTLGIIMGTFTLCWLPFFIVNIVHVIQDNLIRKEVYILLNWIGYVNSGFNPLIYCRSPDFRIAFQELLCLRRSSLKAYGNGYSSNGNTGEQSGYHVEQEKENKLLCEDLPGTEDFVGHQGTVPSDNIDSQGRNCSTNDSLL
TEST_NAME: cAMP accumulation (SPA) in CHO cells transfected with human β2 adrenergic receptor
CONDITIONS_USED: CHO cells transfected with human β2-AR; cAMP; 15 min incubation; 10^−8 to 10^−4 M; read-out: beta-2 EC50
Please note: EC50 exactly at 1 µM is NO. Only values below 1 µM get YES.

Example entries begin here.
CCOC(=O)CN1CCN(S(=O)(=O)c2ccc(N3CCC(NC[C@H](O)c4ccc(O)c(NS(C)(=O)=O)c4)CC3)cc2)CC1	NO
CS(=O)(=O)Nc1cc([C@@H](O)CNC2CCN(c3ccc(S(=O)(=O)N(CC(=O)O)CC4CC4)cc3)CC2)ccc1O	NO
CCOC(=O)[C@@H]1CCCN1S(=O)(=O)c1ccc(N2CCC(NC[C@H](O)c3ccc(O)c(NS(C)(=O)=O)c3)CC2)cc1	YES
COc1ccc(NS(=O)(=O)c2ccc(N3CCC(NCC(O)c4ccc(O)c(NS(C)(=O)=O)c4)CC3)cc2)cc1OC (stereo not drawn)	YES

Asked: Is 1 µM strictly greater than the compound's reported EC50? compound: CCOC(=O)CNS(=O)(=O)c1ccc(N2CCC(NC[C@H](O)c3ccc(O)c(NS(C)(=O)=O)c3)CC2)cc1
Given back: NO

====

MEASURED_TARGET: human β3 adrenergic receptor (Homo sapiens, UniProt P13945)
Construct: Full length β3 AR clones (402 amino acids) containing the last 6 amino acids of hβ3— AR are prepared; expressed in transfected cells; host or cells: CHO cells
Sequence (P13945 whole entry): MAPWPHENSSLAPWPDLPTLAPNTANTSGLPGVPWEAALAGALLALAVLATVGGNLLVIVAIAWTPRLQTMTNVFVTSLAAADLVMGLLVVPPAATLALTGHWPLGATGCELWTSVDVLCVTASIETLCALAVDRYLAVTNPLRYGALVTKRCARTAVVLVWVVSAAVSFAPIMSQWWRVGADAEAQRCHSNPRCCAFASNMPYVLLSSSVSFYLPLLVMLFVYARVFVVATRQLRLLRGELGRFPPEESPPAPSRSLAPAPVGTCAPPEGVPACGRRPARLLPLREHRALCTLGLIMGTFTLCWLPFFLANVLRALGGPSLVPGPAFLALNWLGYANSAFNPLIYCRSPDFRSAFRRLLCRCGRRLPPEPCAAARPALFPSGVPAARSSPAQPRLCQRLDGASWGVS
TEST_NAME: cAMP accumulation (SPA) in CHO cells transfected with human β3 adrenergic receptor
Format: cell-based
CONDITIONS_USED: IA = % activity compound / % activity isoproterenol at 10^−5 M; CHO human β3 cells
QUANTITY_NAME: beta-3 (IA) maximal response relative to isoproterenol

CS(=O)(=O)Nc1cc([C@@H](O)CNC2CCN(c3ccc(S(=O)(=O)N4CC(=O)NC4=O)cc3)CC2)ccc1O	(1)
CCCCN(Cc1ccccc1)S(=O)(=O)c1ccc(N2CCC(NCC(O)c3ccc(O)c(NS(C)(=O)=O)c3)CC2)cc1 (stereo not shown)	(1.1)
CCCCN(CC(=O)O)S(=O)(=O)c1ccc(N2CCC(NC[C@H](O)c3ccc(O)c(NS(C)(=O)=O)c3)CC2)cc1	(1)
CC#CCC(CC#CC)(C(=O)O)S(=O)(=O)c1ccc(N2CCC(NC[C@H](O)c3ccc(O)c(NS(C)(=O)=O)c3)CC2)cc1	(1)
CCCCNS(=O)(=O)c1ccc(N2CCC(NC[C@H](O)COc3cccc4[nH]c5ccccc5c34)CC2)cc1	(0.7)

Next up:
Asked: I have this molecule here, CCOC(=O)CN(C)S(=O)(=O)c1ccc(N2CCC(NC[C@H](O)c3ccc(O)c(NS(C)(=O)=O)c3)CC2)cc1 , and I need its recorded beta-3 (IA) maximal response relative to isoproterenol.
Given back: (1)

====

MEASURED_TARGET: human β2-adrenergic receptor (Homo sapiens, UniProt P07550)
Construct: expressed in transfected cells; host or cells: CHO cells
TEST_NAME: cAMP accumulation (SPA) in CHO cells transfected with human β2 adrenergic receptor
Type: cell-based
CONDITIONS_USED: IA = % activity compound / % activity isoproterenol at 10^−5 M; CHO human β2 cells
QUANTITY_NAME: beta-2 (IA) maximal response relative to isoproterenol

COC(=O)N(CC(=O)OC(C)(C)C)S(=O)(=O)c1ccc(N2CCC(NC[C@H](O)c3ccc(O)c(NS(C)(=O)=O)c3)CC2)cc1	(0.2)
CCCCN(CC(=O)OCc1ccccc1)S(=O)(=O)c1ccc(N2CCC(NC[C@H](O)c3ccc(O)c(NS(C)(=O)=O)c3)CC2)cc1	(0.2)
